The values you see were collected from patent US11767302B2.

test: Stopped-flow kinetic analysis of MAGL tetrazines with eq-5-hydroxy-trans-cyclooctene in MeOH at 25° C.
assay context: relative to 12, MeOH, 25° C.
Record form. Attribute: krel. Fill in for each entry.

Ask | I have this molecule here, O=C(OC(C(F)(F)F)C(F)(F)F)N1CCC(CNS(=O)(=O)c2ccc(-c3nncnn3)cc2)CC1 [100c] , and I need its recorded krel.
Reply | 162

Ask | Same thing, different molecule: O=C(OC(C(F)(F)F)C(F)(F)F)N1CCC(CNS(=O)(=O)c2ccc(-c3nnc(-c4ccoc4)nn3)cc2)CC1 [100a]
Reply | 3

Ask | Same thing, different molecule: Cc1nnc(-c2ccc(-n3ccc(C4CCN(C(=O)OC(C(F)(F)F)C(F)(F)F)CC4)n3)cc2)nn1 [compound 12, reference compound]
Reply | 1

Ask | Same thing, different molecule: C=C(OCC)c1nnc(-c2ccc(S(=O)(=O)NCC3CCN(C(=O)OC(C(F)(F)F)C(F)(F)F)CC3)cc2)nn1 [100b]
Reply | 25
